The values you see were collected from paper PMC3274540.

Tgt: ERα (Homo sapiens)
Construct: recombinant
Sequence (P03372 whole entry): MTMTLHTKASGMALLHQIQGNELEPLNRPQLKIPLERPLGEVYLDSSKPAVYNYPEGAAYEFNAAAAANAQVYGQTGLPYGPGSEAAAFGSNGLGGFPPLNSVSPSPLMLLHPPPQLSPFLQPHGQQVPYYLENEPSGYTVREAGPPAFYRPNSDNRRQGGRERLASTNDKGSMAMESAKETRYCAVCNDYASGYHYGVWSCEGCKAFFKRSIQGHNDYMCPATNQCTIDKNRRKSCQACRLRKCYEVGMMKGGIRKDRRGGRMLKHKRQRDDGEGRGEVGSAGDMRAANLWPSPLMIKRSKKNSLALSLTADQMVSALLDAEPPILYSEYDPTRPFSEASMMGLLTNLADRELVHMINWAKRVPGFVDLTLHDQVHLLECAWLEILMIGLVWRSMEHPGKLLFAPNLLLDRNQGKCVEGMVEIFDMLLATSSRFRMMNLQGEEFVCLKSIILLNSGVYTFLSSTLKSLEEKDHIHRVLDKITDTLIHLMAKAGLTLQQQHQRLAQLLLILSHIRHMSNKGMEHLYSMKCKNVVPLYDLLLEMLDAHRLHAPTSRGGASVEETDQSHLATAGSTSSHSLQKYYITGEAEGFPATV
Protocol Details: fluorescence polarization competition binding assay
pIC50: −log10 of the molar value.
Measure: pIC50

P. COc1ccc([C@@H](C)C(=O)c2ccc(O)cc2O)cc1 [angolensin]
Q. O=c1cc(-c2ccc(O)cc2)oc2cc(O[C@@H]3O[C@H](CO)[C@@H](O)[C@H](O)[C@H]3O)cc(O)c12 [cosmosiin]
**Q:** Of P and Q , whose reported pIC50 is numerically smaller? Kindly give the label for the entry you pick.
**A:** Q

* * *

Tgt: ERβ (Homo sapiens, UniProt Q92731)
Construct: recombinant
Sequence (Q92731 whole entry): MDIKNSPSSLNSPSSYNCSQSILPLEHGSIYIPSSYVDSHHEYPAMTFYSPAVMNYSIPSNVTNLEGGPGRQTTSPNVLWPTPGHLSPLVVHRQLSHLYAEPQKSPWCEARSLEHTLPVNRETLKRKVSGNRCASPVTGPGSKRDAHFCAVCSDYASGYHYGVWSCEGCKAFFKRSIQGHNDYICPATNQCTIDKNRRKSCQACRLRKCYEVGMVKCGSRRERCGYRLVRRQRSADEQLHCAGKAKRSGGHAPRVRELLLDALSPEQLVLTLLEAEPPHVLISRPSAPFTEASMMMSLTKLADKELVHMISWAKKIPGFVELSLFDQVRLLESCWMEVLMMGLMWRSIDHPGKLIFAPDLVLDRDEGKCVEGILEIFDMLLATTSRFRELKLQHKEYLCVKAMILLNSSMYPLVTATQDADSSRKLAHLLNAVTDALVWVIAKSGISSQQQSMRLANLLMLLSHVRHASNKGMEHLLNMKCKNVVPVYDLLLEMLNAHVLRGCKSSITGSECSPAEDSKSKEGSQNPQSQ
Protocol Details: fluorescence polarization competition binding assay
pIC50: −log10 of the molar value.
Measure: pIC50

{"Compound String": "O=c1cc(-c2ccc(O)cc2)oc2cc(O[C@@H]3O[C@H](CO)[C@@H](O)[C@H](O)[C@H]3O)cc(O)c12", "pIC50": 5.48}
{"Compound String": "COc1ccc([C@@H](C)C(=O)c2ccc(O)cc2O)cc1", "pIC50": 5.33}
